Cited source for all entries: PubChem BioAssay (NCI)

- Tested on: NCI-H322M lung
- PROTOCOL TEXT: NCI-60 one-dose screen, 48 h (100 = growth as untreated, 0 = no growth, -100 = all killed)
- MEASUREMENT CONTEXT: 10 µM unless noted
About 83,000 compounds went through this panel and 20% of them were active in at least one assay; those are over-represented in the sample as a whole.
I would appreciate it if you labelled entries met when growth is 90% or higher, otherwise not met.

Example results:
INSERT INTO measurements (molecule, label_class) VALUES
  ('C=C(C)Cn1c(SCC(=O)c2cccs2)nc2sc3c(c2c1=O)CCCC3', 'not met'),
  ('C=CCn1c(SCC(=O)Nc2ccc(C(=O)/C=C/c3ccc(Cl)cc3)cc2)nnc1-c1ccc(Cl)c(Cl)c1', 'not met'),
  ('COc1ccc(NC(=O)c2sc3nc(C)c(C(=O)c4ccccc4)cc3c2N)cc1', 'not met'),
  ('COc1ccc(-c2nc(SCCC(C)C)nc(N/N=C(/C)c3ccc(N)cc3)c2C#N)cc1', 'not met'),
  ('CN1CC(c2ccccc2)C(C(=O)c2ccc(Br)cc2)C12C(=O)Nc1ccccc12 (centres undefined)', 'met'),
  ('CC1(C)C2=C(C(=O)N1Cc1ccccc1)C(c1ccco1)N(C(=O)C1CCC1)CCN2 (centres undefined)', 'met'),
  ('Cc1ccc(S(=O)(=O)c2nc(-c3ccccc3)oc2S(C)=O)cc1 (centres undefined)', 'not met'),
  ('C=C1C(=O)O[C@H]2[C@H]1CC/C(CNC(=O)/C=C/c1cc(OC)c(OC)c(OC)c1)=C\CC[C@@]1(C)O[C@@H]21', 'not met');

Textbook exercise: given the entry Nc1ncnc2c1N=C(c1ccc([N+](=O)[O-])cc1)CC(c1ccc3c(c1)OCO3)N2 (centres undefined) , state whether its growth is greater than or equal to 90%.
not met

Textbook exercise: given the entry c1ccc(-c2cn3nc(-c4c[nH]c5ccccc45)sc3n2)cc1 , state whether its growth is greater than or equal to 90%.
not met

Textbook exercise: given the entry CCN1C(=O)N(CC)C2C1NN=c1s/c(=C\c3ccc([N+](=O)[O-])cc3)c(=O)n12 (centres undefined) , state whether its growth is greater than or equal to 90%.
not met

Textbook exercise: given the entry CCOC(=O)c1c(C)n2c(=O)cc(C)c3c(OC(C)=O)c(OC(C)=O)cc1c32 , state whether its growth is greater than or equal to 90%.
not met
